Source: ChEMBL document CHEMBL1201862

system: A498; assay: NCI tumour cell line growth inhibition, 48 h
Calls of active or inactive are those of the source. Rule as the data show it: active = GI50 up to about 1.1 µM and inactive = higher.
Assay endpoint: GI50

Here's what some known entries look like.
compound=COc1ccc(-n2c(-c3ccccc3)cc(-c3cccs3)c2-c2cccs2)cc1 target_system=A498 assay_endpoint=GI50 measured_value="> 100 µM (inactive)"
compound=C\C=C/C=C/C=C/C(=O)O target_system=A498 assay_endpoint=GI50 measured_value="> 100 µM (inactive)"
compound="CC1NOC(=O)C1/N=N/c1ccccc1Br (centres undefined)" target_system=A498 assay_endpoint=GI50 measured_value="26.8 µM (inactive)"

# input for lookup
Input line: Please give the measured GI50 for this compound: O=c1c2ccccc2nc(Cc2nc(-c3ccc(Cl)cc3)cs2)n1-c1ccc(Cl)cc1
Output line: 68.1 µM (inactive)
